# Assay remarks: Maximum concentration (Cmax) using 20%aqueous hydroxypropyl-beta-cyclodextrin (HPbetaCD) as vehicle. compound was administered intravenously to nude mice at a dose of 25 mg/kg
# Format: ADME, organism-based
# Design: dose 25 mg/kg, route intravenous
# Measurement setup: mouse, in vivo, iv
Property name: Cmax (µM)

INSERT INTO assay_data (record_smiles, property_name, assay_result) VALUES
  ('CN(C)C(=O)C(=O)N1CCC(CC(=O)N2CCC([C@H]3c4ncc(Br)cc4CCc4cc(Cl)cc(Br)c43)CC2)CC1', 'Cmax', 26.3),
  ('O=C(CC1CCN(C(=O)c2ccc[n+]([O-])c2)CC1)N1CCC([C@H]2c3ncc(Br)cc3CCc3cc(Cl)cc(Br)c32)CC1', 'Cmax', 52.3),
  ('NC(=O)CN1CCC(CC(=O)N2CCC([C@H]3c4ncc(Br)cc4CCc4cc(Cl)cc(Br)c43)CC2)CC1', 'Cmax', 30),
  ('NCC(=O)N1CCC(CC(=O)N2CCC([C@H]3c4ncc(Br)cc4CCc4cc(Cl)cc(Br)c43)CC2)CC1', 'Cmax', 80),
  ('O=C(CC1CCN(C(=O)Cn2cncn2)CC1)N1CCC([C@H]2c3ncc(Br)cc3CCc3cc(Cl)cc(Br)c32)CC1', 'Cmax', 22.6),
  ('NC(=O)C(=O)N1CCC(CC(=O)N2CCC([C@H]3c4ncc(Br)cc4CCc4cc(Cl)cc(Br)c43)CC2)CC1', 'Cmax', 26.2),
  ('CN(C)S(=O)(=O)N1CCC(CC(=O)N2CCC([C@H]3c4ncc(Br)cc4CCc4cc(Cl)cc(Br)c43)CC2)CC1', 'Cmax', 30);
